Readings of protein stability index for the listed sequences
# System: Saccharomyces cerevisiae;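 further: PSI is a weighted mean of sequencing reads over stability bins, variants kept only with over 10 reads, mCherry proximal and sfGFP distal, peptide attached via GGGS linker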
# measurement.notes: protein stability index of tFT-peptide fusion (C-terminal peptide) (PSI (0-1 scale)); higher = more stable (slower turnover)
# assay.context: genetic background: das1 deletion; temperature: 37 C
Reply with just the number.

Consider the worked cases shown below.
LMIVSVRLLFFL : 0.419
LLLFLHILRYVF : 0.581
PGHICVPVLGTA : 0.513
GLSVFFFVGFIF : 0.526
CVVFLWCGGCWV : 0.725

Exercise: # return recorded protein stability index for input "AASRVIYLLNLF"
Solution: 0.736

Exercise: # return recorded protein stability index for input "FLVFPLLIQFFL"
Solution: 0.435

Exercise: # return recorded protein stability index for input "TVCSWSALSRFM"
Solution: 0.764

Exercise: # return recorded protein stability index for input "LFLVFIGLFFLT"
Solution: 0.46

Exercise: # return recorded protein stability index for input "SSGIGLFVWVYG"
Solution: 0.514

Exercise: # return recorded protein stability index for input "CCVLGDRCIGSD"
Solution: 0.76

Exercise: # return recorded protein stability index for input "MALAVRVVVCGA"
Solution: 0.131

Exercise: # return recorded protein stability index for input "TNHRVRHWILRV"
Solution: 0.713

Exercise: # return recorded protein stability index for input "NTYKICVVSVTS"
Solution: 0.587

Exercise: # return recorded protein stability index for input "CLYATQFWGRYG"
Solution: 0.774

Exercise: # return recorded protein stability index for input "VCIPLLVIRFLV"
Solution: 0.386

Exercise: # return recorded protein stability index for input "LRLFIFLLFSVF"
Solution: 0.39

Exercise: # return recorded protein stability index for input "VCFWCLYVMFSL"
Solution: 0.463

Exercise: # return recorded protein stability index for input "GRVFSSFFLYIS"
Solution: 0.184
